B1: TRIM55 (parent)
chain: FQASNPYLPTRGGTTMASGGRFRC

# Variants of: B1
# runDescription: protein stability index of a GFP-peptide fusion (GPS, HEK-293T) (PSI 1-6); higher = more stable;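 note: lentivirally expressed fusions sorted by FACS into six bins by GFP to DsRed ratio, PSI derived from sequencing read proportions per bin multiplied by bin number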
# conditionSummary: c terminus: a fixed tail appended
observable: protein stability index

>>> readoutnumber("N5C")
2.6
>>> readoutnumber("G12R")
2.79
>>> readoutnumber("A17G")
1.45
>>> readoutnumber("A3L")
1.8
>>> readoutnumber("A17K")
1.79
>>> readoutnumber("A17N")
2.27
>>> readoutnumber("P9D")
2.24
>>> readoutnumber("R11Y")
2.28
>>> readoutnumber("G13S")
1.75
>>> readoutnumber("S4C")
2.64
>>> readoutnumber("G13Y")
1.51
>>> readoutnumber("S4K")
1.85
>>> readoutnumber("N5R")
1.7
>>> readoutnumber("P6K")
3.13
>>> readoutnumber("C24M")
1.37
>>> readoutnumber("R23D")
2.02
>>> readoutnumber("R21F")
1.71
>>> readoutnumber("S4P")
1.8
>>> readoutnumber("T15P")
1.52
>>> readoutnumber("T10A")
2.06
>>> readoutnumber("T14S")
2.11
>>> readoutnumber("R11N")
1.86
>>> readoutnumber("T15I")
1.88
>>> readoutnumber("G20P")
2.19
>>> readoutnumber("R23I")
1.62
>>> readoutnumber("F22W")
2.51
>>> readoutnumber("R11E")
2.29
>>> readoutnumber("S18H")
1.57
>>> readoutnumber("R23K")
2.1
>>> readoutnumber("G13V")
1.9
>>> readoutnumber("A17R")
2.27
>>> readoutnumber("R11Q")
1.8
>>> readoutnumber("T14W")
1.32
>>> readoutnumber("Y7S")
3.18
>>> readoutnumber("L8E")
3.39
>>> readoutnumber("L8D")
2.55
>>> readoutnumber("G12Y")
1.81
>>> readoutnumber("R21A")
1.18
>>> readoutnumber("F1P")
3.91
>>> readoutnumber("F22Y")
2.47
>>> readoutnumber("T15K")
2.19
>>> readoutnumber("T14F")
1.5
>>> readoutnumber("T10S")
1.97
>>> readoutnumber("Y7D")
3.76
>>> readoutnumber("R11A")
2.05
>>> readoutnumber("M16C")
1.77
>>> readoutnumber("S4R")
1.44
>>> readoutnumber("G19K")
2.39
>>> readoutnumber("F1M")
3.4
>>> readoutnumber("R23F")
1.51
>>> readoutnumber("G13E")
1.46
>>> readoutnumber("G12W")
2.35
>>> readoutnumber("M16K")
3.34
>>> readoutnumber("G13L")
3.49
>>> readoutnumber("P6S")
1.65
>>> readoutnumber("G13N")
1.22
>>> readoutnumber("G20F")
1.53
>>> readoutnumber("N5S")
3.55
>>> readoutnumber("Q2S")
2.13
>>> readoutnumber("T10Y")
1.83
>>> readoutnumber("G19P")
1.83
>>> readoutnumber("T15A")
2.24
>>> readoutnumber("R21T")
1.04
>>> readoutnumber("T10G")
2.03
>>> readoutnumber("C24D")
2.6
>>> readoutnumber("A3E")
2.55
>>> readoutnumber("G13K")
2.74
>>> readoutnumber("C24G")
2.19
>>> readoutnumber("F22A")
1.42
>>> readoutnumber("T10M")
3.72
>>> readoutnumber("A17H")
1.85
>>> readoutnumber("F22G")
1.43
>>> readoutnumber("T14Y")
1.5
>>> readoutnumber("G13Q")
2.68
>>> readoutnumber("T15S")
1.69
>>> readoutnumber("C24V")
1.76
>>> readoutnumber("G19I")
2.04
>>> readoutnumber("Q2D")
3.43
>>> readoutnumber("F22D")
1.41
>>> readoutnumber("F1L")
3.37
>>> readoutnumber("R23C")
2.9
>>> readoutnumber("P9L")
2.65
>>> readoutnumber("G19V")
2.07
>>> readoutnumber("T15V")
2.54
>>> readoutnumber("T15Q")
1.65
>>> readoutnumber("F1Y")
2.06
>>> readoutnumber("T15N")
2.3
>>> readoutnumber("Y7T")
3.27
>>> readoutnumber("P6L")
2.65
>>> readoutnumber("N5Q")
2.33
>>> readoutnumber("Q2C")
1.44
